- System: ACHN renal
- protocolText: NCI tumour cell line growth inhibition, 48 h
measuredAttribute: TGI

• O=[N+]([O-])c1ccc(C(c2c[nH]c3ccccc23)c2c[nH]c3ccccc23)cc1 = 21.5 µM
• O=c1[nH]nc(Cc2ccccc2)n1/N=C/c1c[nH]c2ccccc12 = > 100 µM
• Cc1ccc(C(=O)OC[C@H]2CC[C@@H](n3cc(N(C)C4CCCCC4)c(=O)[nH]c3=O)O2)cc1 = 79.3 µM

Req: Identify measured TGI obtained with ACHN renal for CC(=O)C1CC(C)=CCC12C(=O)Nc1ccccc12 (stereo not given) .
Resp: > 100 µM

Req: // output TGI; input N=C1C(c2nc(-c3ccc(Br)cc3)cs2)=C(O)CN1Cc1cccnc1 ; system ACHN renal
Resp: 98.8 µM

---

- Test system: MOLT-4 leukemia
- protocolText: NCI tumour cell line growth inhibition, 48 h
measuredAttribute: GI50

Examples with their reported GI50 follow.
* C=C1CC2(OC1=O)C(=O)N(CCCCCCCN1C(=O)C3(CC(=C)C(=O)O3)c3ccccc31)c1ccccc12 (centres undefined) | 267 nM
* O=C(NNc1nc(Cl)nc(N2CCN(C(c3ccccc3)c3ccccc3)CC2)n1)c1ccccc1 | 1660 nM
* CCOC(=O)c1c2c(n3ccc(NC(=O)CCN4CCCC4)cc13)C(=O)c1ncccc1C2=O | 1520 nM

# evaluate next
Req: Consider the compound COc1nc(N(C)O)nc(N(C)O)n1 and give its recorded GI50.
Resp: 885 nM

---

- Tested on: NCI-H23 lung
- protocolText: NCI tumour cell line growth inhibition, 48 h
measuredAttribute: TGI (µM)
Give the value in µM but do not write µM after it.

Illustrative cases are given below, each with its answer.
• C=C1CC2(OC1=O)C(=O)N(CCCCCCCN1C(=O)C3(CC(=C)C(=O)O3)c3ccccc31)c1ccccc12 (stereo unspecified) = 11.6
• CCOC(=O)C(=O)Nc1nc2c(s1)C(=O)c1ccccc1C2=O = 27.6
• Oc1ccc(/C=C\c2nnc(/C=C\c3ccc(O)c(O)c3)s2)cc1O = 17.7
• ClCc1cccc(Cn2cnc3c(Cl)ncnc32)c1 = 4.07

Req: Check the records and state TGI for COc1cccc(C2CC(C)(N3CCCC3)Oc3cc4c(cc32)OCO4)c1O (stereo unspecified)
Resp: 71

---

# maps each entry to its TGI
- System: OVCAR-5 ovarian
- protocolText: NCI tumour cell line growth inhibition, 48 h

Check out these entries, answers already filled in.
* CS(=O)(=O)CCNCc1nc(-c2ccc3ncnc(Nc4ccc(F)c(Cl)c4)c3c2)cs1 | > 25 µM
* CC(=O)NNc1nc(C)c(C(/C=C/c2ccc3c(c2)OCO3)=N/Nc2ccccc2)s1 | > 100 µM

Req: Fill in TGI for record O=C(c1ccccc1)C(c1ccccc1)C1(O)C(=O)Nc2c(Cl)cc(Cl)cc21 (stereo not given)
Resp: 33.2 µM

Req: Dear colleague, please send me the reported TGI for CCOC(=O)c1c2c(n3ccc(NC(=O)CCN4CCCC4)cc13)C(=O)c1ncccc1C2=O when you can.
Resp: 3.42 µM

Req: Determine from records and report TGI for COc1ccc(Cl)cc1Nc1nc(C(F)(F)F)ccc1C(=O)N/N=C/c1c(Cl)cccc1Cl
Resp: > 100 µM

---

- Test system: HL-60(TB) leukemia
- protocolText: NCI tumour cell line growth inhibition, 48 h; in the data active means GI50 below about 0.43 µM; inactive means the rest
The reply should name one outcome from 1 (active), -1 (inactive)

• N#Cc1cn(C2OC(CO)C(O)C2O)c2ncnc(N)c12 (stereo unspecified) = 1
• CC(=O)O[C@H]1CC[C@@]2(C)C(=CC[C@@H]3[C@@H]2CC[C@]2(C)C(c4cccnc4)=CC[C@@H]32)C1 = -1
• O=C(NNc1nc(Cl)nc(N2CCN(C(c3ccccc3)c3ccccc3)CC2)n1)c1ccccc1 = -1

Req: Give the logged outcome of this assay for the following compound: O=C(CCCCCCSc1nc(-c2ccccc2)cc(-c2ccc(Cl)cc2)n1)NO
Resp: -1

Req: What outcome does the record of this test show for C=C1CC2(OC1=O)C(=O)N(CCCCCCCN1C(=O)C3(CC(=C)C(=O)O3)c3ccccc31)c1ccccc12 (stereo unspecified) ?
Resp: -1

Req: Tell me the recorded outcome of this test for O=C1NCc2ccc3c(-c4cccc(Cl)c4)c[nH]c3c21 .
Resp: 1

Req: Just curious, what result did COc1ccc(N=C2CSc3nnc(-c4cc(F)c(Cl)cc4Cl)n3N2)cc1 get here?
Resp: 1

Req: Give the logged outcome of this assay for the following compound: COc1cc2c3c(n(C)c(=O)c2cc1OC)-c1cc2c(cc1/C3=C\CCCCCN)OCO2
Resp: -1

Req: For this compound, state the assay outcome: CC(=O)Nc1ccc2c(c1)c(C1=C(c3cn(C)c4ccccc34)C(=O)NC1=O)cn2C
Resp: -1

Req: Assay outcome for COc1ccc(Cl)cc1Nc1nc(C(F)(F)F)ccc1C(=O)N/N=C/c1c(Cl)cccc1Cl : what was it?
Resp: -1

Req: Status in this test for CN(C)c1cccc2c(S(=O)(=O)N[C@H]3CC[C@H]4[C@@H]5CCc6cc(O)ccc6[C@H]5CC[C@]34C)cccc12 ?
Resp: -1
